Test system: HeLa
Assay: Cytotoxicity against human HeLa cells after 72 hrs by MTT assay
Format: functional, cell-based

mol smiles: CCCCCCCCCCCCCCCCOP(=O)([O-])OCC[N+]1(C)CCCC1
IC50 / µM: 46.2

mol smiles: CCCCCCCCCCCCCCCC[N+]1(C)CCCC1.[Br-]
IC50 / µM: 2.29

mol smiles: CCCCCCCCCCCCCCCCOP(=O)([O-])OCC[N+]1(C)CCCCCC1
IC50 / µM: 53.1

mol smiles: CCCCCCCCCCCCCCCCOP(=O)([O-])OCC[N+](C)(CC)CC
IC50 / µM: 49.4

mol smiles: CCCCCCCCCCCCCCCCOP(=O)([O-])OCC[N+]1(C)CCOCC1
IC50 / µM: 21.7
